System: groupe de huit goûteurs expérimentés
Test: Sweetening power judged by a panel of eight experienced tasters against a sucrose reference solution
Assay type: in vivo
Settings: Table II; weight basis, relative to a 2 % sucrose solution
Quick list: Pouvoir édulcorant per entry.
measure-name: Pouvoir édulcorant

INSERT INTO assay_data (chem_smiles, target_under_test, test_result) VALUES
  ('O=C(O)CNC(=NS(=O)(=O)c1ccccc1)Nc1cccc(Cl)c1', 'groupe de huit goûteurs expérimentés', 17000),
  ('CN(C(=NCc1ccccc1)NCC(=O)O)c1ccccc1', 'groupe de huit goûteurs expérimentés', 200),
  ('C[C@H](NC(=Nc1cc(F)cc(F)c1)NCC(=O)O)c1ccccc1', 'groupe de huit goûteurs expérimentés', 15000),
  ('O=C(O)CN=C(NCC1CCCCC1)Nc1ccc(C(=O)O)cc1', 'groupe de huit goûteurs expérimentés', 50),
  ('O=C(O)CNC(=Nc1ccc([N+](=O)[O-])cc1)NCC1CCCCC1', 'groupe de huit goûteurs expérimentés', 8000),
  ('Cc1ccc(NC(=Nc2ccc(C#N)cc2)NCC(=O)O)cc1', 'groupe de huit goûteurs expérimentés', 7000),
  ('C[C@H](NC(=Nc1cccc(Cl)c1)NCC(=O)O)c1ccccc1', 'groupe de huit goûteurs expérimentés', 30000);

====

System: groupe de huit goûteurs expérimentés
Assay: Sweetening power judged by a panel of eight experienced tasters against a sucrose reference solution
Format: in vivo
Conditions: Table II; weight basis, relative to a 2 % sucrose solution
Listed compounds paired with reported Pouvoir édulcorant
measure-name: Pouvoir édulcorant

INSERT INTO results (chem_smiles, test_result) VALUES
  ('Cc1ccccc1N=C(NCC(=O)O)Nc1ccc(C#N)cc1', 5000),
  ('O=C(O)CNC(=Nc1cc(Cl)cc(Cl)c1)NCc1ccccc1', 80000),
  ('N#Cc1ccc(N=C(NCC(=O)O)N2CCCC2)cc1', 100),
  ('C[C@H](NC(=Nc1cc(Cl)c(Cl)c(Cl)c1)NCC(=O)O)c1ccccc1', 35000),
  ('Cc1cc(N=C(NCC(=O)O)N[C@@H](C)c2ccccc2)ccc1C#N', 50000),
  ('N#CN=C(NCC(=O)O)Nc1cccc(Cl)c1', 80),
  ('CC(C)CCNC(=Nc1ccc(C#N)cc1)NCC(=O)O', 200),
  ('N#Cc1ccc(N=C(NCC(=O)O)NCC23CC4CC(CC(C4)C2)C3)cc1', 23000),
  ('Cc1cc(C)cc(N=C(NCC(=O)O)N(C)Cc2ccccc2)c1', 5000),
  ('Cc1cc(NC(=NC2CCCCCCC2)NCC(=O)O)ccc1C#N', 80000),
  ('COC(=O)c1ccc(N=C(NCC(=O)O)N[C@@H](C)c2ccccc2)cc1', 700);

====

Tested on: groupe de huit goûteurs expérimentés
Experiment: Sweetening power judged by a panel of eight experienced tasters against a sucrose reference solution
Type: in vivo
Conditions: Table II; weight basis, relative to a 2 % sucrose solution
# maps each entry to its Pouvoir édulcorant
measure-name: Pouvoir édulcorant

INSERT INTO results (chem_smiles, measure_name, test_result) VALUES
  ('C[C@H](NC(=Nc1cccc([N+](=O)[O-])c1)NCC(=O)O)c1ccccc1', 'Pouvoir édulcorant', 6000),
  ('C[C@@H](NC(=Nc1ccc(C#N)cc1)NC1CCCCCCC1)C(=O)O', 'Pouvoir édulcorant', 900),
  ('O=C(O)CNC(=Nc1cc(Cl)cc(Cl)c1)NC1CCCCCCC1', 'Pouvoir édulcorant', 60000);
